B1: FAM9B (parent)
chain: EDLTAKRKRMKMDKTCSKTKNKSK

variants of: B1; assay: protein stability index of a GFP-peptide fusion (GPS, HEK-293T) (PSI 1-6); higher = more stable; conditions: c terminus: a fixed tail appended;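 further: lentivirally expressed fusions sorted by FACS into six bins by GFP to DsRed ratio, PSI derived from sequencing read proportions per bin multiplied by bin number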
metric: protein stability index
Give bare numbers.

Provide reported protein stability index for each item, in the same order as listed.
1. D2K
2. S17T

Response line:
1: 4.9; 2: 5.32

Go through the items and report each one's protein stability index.
1. M10I
2. D13A

Response line:
1: 5.18; 2: 4.99

Provide each entry's protein stability index from the list below.
1. R7S
2. N21F
3. A5Y
4. K11P
5. D2R
6. R9S
7. M12W

Response line:
1: 5.3; 2: 4.57; 3: 5.13; 4: 5.16; 5: 4.43; 6: 5.47; 7: 3.86

For every item in the list below, what is its measured protein stability index?
1. C16F
2. N21I
3. S17E
4. K6A

Response line:
1: 4.93; 2: 4.7; 3: 5.73; 4: 4.87

For every item below, please supply its protein stability index.
1. S23P
2. K6T
3. K11M
4. T19G
5. S23A

Response line:
[5.54, 4.68, 4.21, 4.94, 5.7]

Below are 2 variants. Give each one its protein stability index.
1. K24L
2. K22E

Response line:
1: 4.01; 2: 4.96

The values you see were collected from the supplement of paper PMC10567573.
